What pIC50 was measured for each of the following?
Tested on: MKN-45
Assay: Antiproliferative activity against human MKN-45 cells incubated for 48 hrs by SRB assay
Assay type: functional, cell-based
Conditions: MKN-45, 48 h
Answers are plain numbers, as −log10 of the molar value.

Below: 5 molecules and their reported pIC50.
>>> numericvalue("CCc1nc(-c2ccc(OC)cc2)n(-c2cccc(C(=O)NCCCCn3ncnn3)c2)n1")
5.54
>>> numericvalue("CCc1nc(-c2ccc(F)cc2)n(-c2cccc(C(=O)NCCCCn3nccn3)c2)n1")
6.52
>>> numericvalue("CCc1nc(-c2ccc(OC)cn2)n(-c2cccc(C(=O)NCCCCn3nccn3)c2)n1")
6.60
>>> numericvalue("CCCc1ccc(-c2nc(CC)nn2-c2cccc(C(=O)NCCCCn3nccn3)c2)cc1")
5.71
>>> numericvalue("CCc1nc(-c2ncc(OC)cn2)n(-c2cccc(C(=O)NCCCCc3ccccc3)c2)n1")
6.39

Batch request: pIC50 for each of the following molecules.
1. CCc1nc(-c2ccc(OC)cc2)n(-c2cccc(C(=O)NCCCCn3cc(F)cn3)c2)n1
2. CCc1nc(-c2ccc(C(F)(F)F)cc2)n(-c2cccc(C(=O)NCCCCn3nccn3)c2)n1
3. CCc1nc(-c2ncc(OC)cn2)n(-c2cccc(C(=O)NCCCCn3nccn3)c2)n1

**A:**
[5.23, 5.57, 6.30]
